Reference source: PubChem BioAssay (EPA / NIEHS)

- TEST NAME: ATG_E_Box_CIS: Attagene CIS-FACTORIAL HepG2 Assay for human Enhancer Box (E-box) (AID 2282936)
- APPLIED CONDITIONS: HepG2 E-box cis-reporter transcription, actives raise or lower the signal
Active and inactive are the calls of the source. The calls were made as follows: active = hit-call score of the fitted dose curve at least 0.9, where 1 is the maximum; inactive = score below 0.9.
Outcomes: 1 (yes) (active), 0 (no) (inactive)

compound=CC(C)(C)c1cccc(C(C)(C)C)c1O classification="0 (no)"
compound=Oc1cc2ccccc2c2ccccc12 classification="0 (no)"
compound=CC1=C(/C=C/C(C)=C/C=C/C(C)=C/C(=O)O)C(C)(C)CCC1 classification="0 (no)"
compound=OCCC(F)(F)C(F)(F)C(F)(F)C(F)(F)C(F)(F)C(F)(F)F classification="0 (no)"
compound=Cc1cc(CCN2CCN(c3nsc4ccccc34)CC2)cc2c1NC(=O)CC2(C)C classification="0 (no)"
compound=O=C(/C=C/c1ccc(O)cc1)CC(=O)/C=C/c1ccc(O)cc1 classification="1 (yes)"
compound=COC(=O)CCCCC(=O)OC classification="0 (no)"
compound=CC(C)(C)CC(C)(C)c1ccc(O)c(-n2nc3ccccc3n2)c1 classification="0 (no)"
compound="NC(=O)N1C(=O)C(C(=O)c2cc(Cl)cs2)c2cc(F)c(Cl)cc21 (stereo unspecified)" classification="0 (no)"
compound="CCCCC(CC)COC(=O)CCCCC(=O)OCC(CC)CCCC (stereo unspecified)" classification="0 (no)"
compound=Cc1ccc(S(=O)(=O)O)c(C)c1 classification="0 (no)"

---

- Read-out: Intercellular Adhesion Molecule 1 (ICAM1), ICAM1 (gene 3383)
- TEST NAME: BSK_KF3CT_ICAM1: BioMAP Diversity Plus: KF3CT Assay for Intercellular Adhesion Molecule 1 (ICAM1) Biomarker Activity (AID 2283067)
- APPLIED CONDITIONS: primary human keratinocytes with fibroblasts; actives raise or lower the signal
Active and inactive are the calls of the source. How the source made its calls: active means hit-call score of the fitted dose curve at least 0.9, where 1 is the maximum; inactive means score below 0.9.
MEASURED PROPERTY: AC50

compound="CCc1ccc(CCOc2ccc(CC3SC(=O)NC3=O)cc2)nc1 (stereo not given)" measured_property=AC50 result_value=inactive
compound=CC(C)CCCCCCOC(=O)CCCCC(=O)OCCCCCCC(C)C measured_property=AC50 result_value=inactive
compound="COCC(C)O (stereo not given)" measured_property=AC50 result_value=inactive
compound=Cc1oc(-c2ccccc2)nc1CCOc1ccc(C[C@H](Nc2ccccc2C(=O)c2ccccc2)C(=O)O)cc1 measured_property=AC50 result_value="7.43 µM (active)"
compound=CCCOC(=O)c1ccc(O)cc1 measured_property=AC50 result_value=inactive
compound=O=c1c(-c2ccc(O)cc2)coc2cc(O)ccc12 measured_property=AC50 result_value=inactive
compound=CCOC(=O)CC(O)(CC(=O)OCC)C(=O)OCC measured_property=AC50 result_value=inactive
compound=OCCC(F)(F)C(F)(F)C(F)(F)C(F)(F)C(F)(F)C(F)(F)F measured_property=AC50 result_value=inactive
compound=CC(=O)CC(C)(C)O measured_property=AC50 result_value=inactive
compound=CCCCCCCCCCCCN1CCCC1=O measured_property=AC50 result_value="36.8 µM (active)"
compound=NC(=O)N(O)[C@@H]1C=C[C@H](Oc2cccc(Oc3ccc(F)cc3)c2)C1 measured_property=AC50 result_value=inactive
compound="N#C[C@@H]1CC(F)(F)CN1C(=O)CNC1CC2CCC(C1)N2c1ncccn1 (stereo not given in full)" measured_property=AC50 result_value=inactive
compound=CC1=C(/C=C/C(C)=C/C=C/C(C)=C/C(=O)O)C(C)(C)CCC1 measured_property=AC50 result_value="30.6 µM (active)"
compound=O=C(O)c1ccccc1C(c1ccc(O)cc1)c1ccc(O)cc1 measured_property=AC50 result_value=inactive
compound="NC(=O)N1C(=O)C(C(=O)c2cc(Cl)cs2)c2cc(F)c(Cl)cc21 (stereo not given)" measured_property=AC50 result_value="12.4 µM (active)"

---

- ASSAYED TARGET: human Neurokinin, NK2 Receptor, TACR2 (gene 6865)
- TEST NAME: NVS_GPCR_hNK2: NovaScreen (NVS) G Protein-Coupled Receptor Assay for human Neurokinin, NK2 Receptor (AID 2283278);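 also: actives reduce bound radioligand signal relative to DMSO baseline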
Results filed as inconclusive are left out. Activity calls are given as the source filed them. How the source made its calls: active means hit-call score of the fitted dose curve at least 0.9, where 1 is the maximum; inconclusive means response in the unintended direction; inactive means score below 0.9.
Possible outcomes: Yes for active, No for inactive

smiles=CCCOc1sc(C(=O)N2CCC(c3cc(CN)ccc3F)CC2)c(C)c1Br classification=Yes
smiles=CC(=O)NC1(c2cccc(F)c2)CCN(CC[C@@]2(c3ccc(Cl)c(Cl)c3)CN(c3ccccc3)C(=O)CO2)CC1 classification=Yes
smiles=CN1CCN(c2ccccc2/C=C2\SCCN(c3ccc(Cl)c(Cl)c3)C2=O)CC1 classification=Yes
smiles=NC(=O)N(O)[C@@H]1C=C[C@H](Oc2cccc(Oc3ccc(F)cc3)c2)C1 classification=No
smiles=CCCCCCCCCCCCCC[N+](C)(C)C classification=Yes
smiles=Nc1cccc2c(N)cccc12 classification=No
smiles=C#C[C@]1(O)CC[C@H]2[C@@H]3CCC4=CC(=O)CC[C@@H]4[C@H]3CC[C@@]21C classification=No

---

- TEST NAME: STM_H9_OrnithineISnorm_perc: Stemina devTOX quickPredict H9 human embryonic stem cell (hESC)-based Assay for Ornithine (ORN) Metabolite Biomarker, Normalized (AID 2283712);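 also: ornithine released into spent medium during last day measured by mass spectrometry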
Activity calls are given as the source filed them. The calls were made as follows: active = hit-call score of the fitted dose curve at least 0.9, where 1 is the maximum; inactive = score below 0.9.
Possible outcomes: active, inactive

molecule=COc1ccc([N+](=O)[O-])cc1N classification=inactive
molecule=C#C[C@]1(O)CC[C@H]2[C@@H]3CCC4=CC(=O)CC[C@@H]4[C@H]3CC[C@@]21C classification=active
molecule=O=C(OCCOCCOC(=O)c1ccccc1)c1ccccc1 classification=inactive
molecule=CN1CCC[C@H]1c1cccnc1 classification=inactive
molecule=Nc1cccc2c(N)cccc12 classification=inactive
molecule=CN(C)C=O classification=inactive
molecule=O=C(O)Cc1cc(I)c(Oc2cc(I)c(O)c(I)c2)c(I)c1 classification=inactive
molecule="CCc1ccc(CCOc2ccc(CC3SC(=O)NC3=O)cc2)nc1 (configuration not stated)" classification=active
molecule=CCN(CC)CCNc1ccc(CNC=O)c2sc3ccc(OC)cc3c(=O)c12 classification=active
molecule="N#C[C@@H]1CC(F)(F)CN1C(=O)CNC1CC2CCC(C1)N2c1ncccn1 (some centres not stated)" classification=inactive
molecule=C[C@@H]1C[C@H]2[C@@H]3CCC4=CC(=O)C=C[C@]4(C)[C@@]3(F)[C@@H](O)C[C@]2(C)[C@@]1(O)C(=O)COP(=O)(O)O classification=inactive
molecule=c1ccc2c(c1)ccc1ccccc12 classification=active

---

- TEST NAME: CCTE_Deisenroth_AIME_96WELL_CTox_Inactive: Cytotoxicity Assessment (CTOX) in CCTE's 96-well Estrogen Receptor Transactivation Assay without AIME metabolic competence (metabolism negative), Deisenroth Lab (AID 2284029)
Results filed as inconclusive are left out. The source made the active and inactive calls. The calls were made as follows: active = hit-call score of the fitted dose curve at least 0.9, where 1 is the maximum; inconclusive = response in the unintended direction; inactive = score below 0.9.
Outcome codes: T for active, F for inactive

compound=c1ccc2c(c1)ccc1ccccc12 classification=F
compound=CCCCC[C@H](O)CC(=O)CCc1ccc(O)c(OC)c1 classification=F
compound=CC(C)(C)c1ccc(O)c(C(C)(C)C)c1 classification=T
compound="CCCCC(CC)COC(=O)CCCCC(=O)OCC(CC)CCCC (stereo not given)" classification=F
compound=c1ccc2cc3c(ccc4ccccc43)cc2c1 classification=F

---

- TEST NAME: ATG_ERE_CIS: Attagene CIS-FACTORIAL HepG2 Assay for Estrogen Response Element (ERE) (AID 2282940)
- APPLIED CONDITIONS: HepG2 ERE cis-reporter, Attagene RNA transcript; actives raise or lower the signal
- Method: ATG_CIS is a cell-based, multiplexed-readout assay that uses HepG2, a human liver cell line, with measurements taken at 24 hours after chemical dosing in a 24-well plate.ATG_ERE_CIS is one of 52 assay component(s) measured or calculated from the ATG_CIS assay. […] This assay endpoint, ATG_ERE_CIS, was analyzed with bidirectional fitting relative to DMSO as the negative control and baseline of activity. […]
Calls of active or inactive are those of the source. How the source made its calls: active means hit-call score of the fitted dose curve at least 0.9, where 1 is the maximum; inactive means score below 0.9.
MEASURED PROPERTY: AC50

compound=CN1CCN(c2ccccc2/C=C2\SCCN(c3ccc(Cl)c(Cl)c3)C2=O)CC1 result_value=inactive
compound="NC(=O)N1C(=O)C(C(=O)c2cc(Cl)cs2)c2cc(F)c(Cl)cc21 (stereo unspecified)" result_value=inactive
compound=COc1ccc([N+](=O)[O-])cc1N result_value=inactive
compound=CCN(CC)CCNc1ccc(CNC=O)c2sc3ccc(OC)cc3c(=O)c12 result_value="722 nM (active)"
compound=CC(C)(C)c1cccc(C(C)(C)C)c1O result_value=inactive
compound=CCCOc1sc(C(=O)N2CCC(c3cc(CN)ccc3F)CC2)c(C)c1Br result_value="2720 nM (active)"
compound=c1ccc2c(c1)ccc1ccccc12 result_value=inactive
compound=CC(C)(C)c1ccc(O)c(C(C)(C)C)c1 result_value=inactive
compound=O=C(O)c1ccccc1C(c1ccc(O)cc1)c1ccc(O)cc1 result_value="62.7 µM (active) [middle of 4 runs]"
compound=CCCCC[C@H](O)CC(=O)CCc1ccc(O)c(OC)c1 result_value=inactive
compound="COCC(C)O (stereo unspecified)" result_value=inactive
compound=CC(C)CCCCCCOC(=O)CCCCC(=O)OCCCCCCC(C)C result_value=inactive
compound=CCC(=C(c1ccc(O)cc1)c1ccc(OCCN(C)C)cc1)c1ccccc1 result_value=inactive
compound=c1ccc2cc3c(ccc4ccccc43)cc2c1 result_value="2.82 µM (active) [middle of 4 runs]"
compound=Cc1ccc(S(=O)(=O)O)c(C)c1 result_value=inactive
compound=CCCCCCCCCCCCN1CCCC1=O result_value=inactive
compound=CCCCCCCCOC(=O)CCCCCCCCC(=O)OCCCCCCCC result_value=inactive
compound=FC(F)(I)C(F)(F)C(F)(F)C(F)(F)C(F)(F)C(F)(F)I result_value="19.2 nM (active)"
compound=O=C(O)Cc1cc(I)c(Oc2cc(I)c(O)c(I)c2)c(I)c1 result_value=inactive
compound=O=[N+]([O-])c1ccc(O)cc1 result_value=inactive
compound=CC(=O)CC(C)(C)O result_value=inactive
